System: PCSK9 gene
Test: PCSK9 gRNA/SpCas9 editing in primary cynomolgus hepatocytes (Tables 2, 22)
Type: cell-based, cynomolgus monkey
Details: SpCas9 mRNA MS002, 625 ng/test article/mL, rep2
In the oligonucleotide strings, read from the 5' end, every base follows the letter of its sugar. An asterisk marks phosphorothioate; unmarked linkages are phosphodiester. Other units and linkages are bracketed, terminal groups are in braces. A string of capitals states the bases alone. m = 2'-O-methyl; r = 2'-OH (RNA)
MEASURED METRIC: Cynomolgus Primary Hepatocytes-% Editing (%)
# number only, unit % dropped from output

Below, each entry is followed by its recorded Cynomolgus Primary Hepatocytes-% Editing result.
[
  {
    "MOLECULE": "GA402 (nucleic acid) guide: mU*mC*mA*rGrCrUrCrCrArGrGrCrGrGrUrCrCrUrGrGmGrUrUrUrUrArGmAmGmCmUmArGmAmAmAmUmAmGmCmAmArGrUrUmArAmArAmUrAmAmGmGmCmUmArGrUmCmCrGrUrUrAmUmCrArAmCmUmUrGmAmAmAmAmAmGmUmGrGmCmAmCmCmGmAmGmUmCmGmGmUmGmCmU*mU*mU*mUmUrUmU",
    "ENDPOINT UNIT": "%",
    "QUANTITATIVE READOUT": 40.31
  },
  {
    "MOLECULE": "GA398 (nucleic acid) guide: mU*mC*mA*rGrCrUrCrCrArGrGrCrGrGrUrCrCrUrGrGmGrUrUrUrUrArGmAmGmCmUmAmGmAmAmAmUmAmGmCmAmArGrUrUmArAmArAmUrAmAmGmGmCmUmArGrUrCmCrGrUrUrAmUmCrArAmCmUmUmGmAmAmAmAmAmGmUmGmGmCmAmCmCmGmAmGmUmCmGmGmUmGmCmU*mU*mU*mUmUmUmU",
    "ENDPOINT UNIT": "%",
    "QUANTITATIVE READOUT": 44
  }
]

Moving on to the next molecule.
Tell me Cynomolgus Primary Hepatocytes-% Editing reported for GA408 (nucleic acid) guide: mU*mC*mA*rGrCrUrCrCrArGrGrCrGrGrUrCrCrUrGrGmGrUrUrUrUrArGmAmGmCmUmAmGmAmAmAmUmAmGmCmAmArGrUrUmArAmArAmUrAmAmGmGmCmUmArGrUmCmCrGrUrUrAmUmCrArAmCmUmUmGmAmAmAmAmAmGmUmGrGmCmAmCmCmGmAmGmUmCmGmGmUmGmCmU*mU*mU*mUmUrUmU
37.14
